biological target: 14-3-3τ (UniProt P27348); test: cell-based or functional assay
Sequence (P27348 whole entry): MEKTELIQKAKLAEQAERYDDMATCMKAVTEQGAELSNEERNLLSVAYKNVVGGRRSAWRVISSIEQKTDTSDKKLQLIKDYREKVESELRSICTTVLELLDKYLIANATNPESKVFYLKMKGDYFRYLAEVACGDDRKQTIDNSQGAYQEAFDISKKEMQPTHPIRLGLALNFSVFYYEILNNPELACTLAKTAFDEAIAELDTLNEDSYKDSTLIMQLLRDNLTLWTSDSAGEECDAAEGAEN
measured-metric: PKA-induced fluorescence change; Alizarin Red 25x (fold)
Write the number in fold without appending the unit.

Asked: Which PKA-induced fluorescence change; Alizarin Red 25x is listed for phosphorylated P5 peptide AcDap(Pyr)RTGRRFS(PO3 2-)YP-amide ?
Given back: 1.49

Asked: Look at this substance and give its reported PKA-induced fluorescence change; Alizarin Red 25x. P4, Ac-GRDap(Pyr)GRRFSYP-amide, serine-phosphorylated by PKA in the assay (peptide)
Given back: 1.23

Asked: I am curious: what PKA-induced fluorescence change; Alizarin Red 25x value has been reported for P2, Ac-GRTGRRDap(Pyr)SYP-amide, serine-phosphorylated by PKA in the assay (peptide) ?
Given back: 1.37

Asked: I am curious: what PKA-induced fluorescence change; Alizarin Red 25x value has been reported for P3, Ac-GRTDap(Pyr)RRFSYP-amide, serine-phosphorylated by PKA in the assay (peptide) ?
Given back: 1.17

----------
molecular target: 14-3-3τ (UniProt P27348); assay: cell-based or functional assay
measured-metric: PKA-induced fluorescence change; Ponceau S 50x (fold)
The figure you give is taken to be in fold; do not add the unit.

Asked: Record phosphorylated P5 peptide AcDap(Pyr)RTGRRFS(PO3 2-)YP-amide : what is its PKA-induced fluorescence change; Ponceau S 50x with 14-3-3τ (UniProt P27348)?
Given back: 4.36

Asked: Observed PKA-induced fluorescence change; Ponceau S 50x on 14-3-3τ (UniProt P27348) for P4, Ac-GRDap(Pyr)GRRFSYP-amide, serine-phosphorylated by PKA in the assay (peptide) , please.
Given back: 2.69

Asked: Give recorded PKA-induced fluorescence change; Ponceau S 50x with 14-3-3τ (UniProt P27348) for the following substance: P2, Ac-GRTGRRDap(Pyr)SYP-amide, serine-phosphorylated by PKA in the assay (peptide)
Given back: 6.57

Asked: What value of PKA-induced fluorescence change; Ponceau S 50x on 14-3-3τ (UniProt P27348) does P3, Ac-GRTDap(Pyr)RRFSYP-amide, serine-phosphorylated by PKA in the assay (peptide) have?
Given back: 2.88

----------
molecular target: 14-3-3τ (UniProt P27348); assay: cell-based or functional assay
Give measured PKA-induced fluorescence change; Eriochrome Black T 50x for each item. Keep answers brief.
I only need the number, in fold, no unit after it.

Asked: Which value of PKA-induced fluorescence change; Eriochrome Black T 50x has been reported for P4, Ac-GRDap(Pyr)GRRFSYP-amide, serine-phosphorylated by PKA in the assay (peptide) in the records?
Given back: 0.59

Asked: Using the record for P3, Ac-GRTDap(Pyr)RRFSYP-amide, serine-phosphorylated by PKA in the assay (peptide) , report its PKA-induced fluorescence change; Eriochrome Black T 50x.
Given back: 0.31

Asked: Requested read-out: PKA-induced fluorescence change; Eriochrome Black T 50x. Entry: phosphorylated P5 peptide AcDap(Pyr)RTGRRFS(PO3 2-)YP-amide
Given back: 1.12

Asked: Data request, read-out PKA-induced fluorescence change; Eriochrome Black T 50x, for P2, Ac-GRTGRRDap(Pyr)SYP-amide, serine-phosphorylated by PKA in the assay (peptide)
Given back: 3.71

----------
target: 14-3-3τ (UniProt P27348); test: cell-based or functional assay
measured-metric: PKA-induced fluorescence change; Rose Bengal 50x (fold)
Give your result in fold as a bare value.

Asked: # get_value(readout='PKA-induced fluorescence change; Rose Bengal 50x', item= P2, Ac-GRTGRRDap(Pyr)SYP-amide, serine-phosphorylated by PKA in the assay (peptide) )
Given back: 0.72

Asked: Item under review: P3, Ac-GRTDap(Pyr)RRFSYP-amide, serine-phosphorylated by PKA in the assay (peptide) . Reported PKA-induced fluorescence change; Rose Bengal 50x?
Given back: 0.97

Asked: What value of measured PKA-induced fluorescence change; Rose Bengal 50x is listed for P4, Ac-GRDap(Pyr)GRRFSYP-amide, serine-phosphorylated by PKA in the assay (peptide) ?
Given back: 0.91

Asked: # get_value(readout='PKA-induced fluorescence change; Rose Bengal 50x', item= phosphorylated P5 peptide AcDap(Pyr)RTGRRFS(PO3 2-)YP-amide )
Given back: 0.95
